Attribute: viability, T/C
- Tested on: HUVEC/MSC spheroids viability
- test.summary: Human HUVEC/MSC cell line growth inhibition [KRAS2];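 also: percent of DMSO vehicle control luminescence so 100% = untreated viability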
- conditions: compound 0.03 µM; stronger effect = lower value

compound	viability, T/C
CC1COCCN1c1cc(-c2ccnn2C)c2ccnc(-c3ccn[nH]3)c2n1 (centres undefined)	80.5% [middle of 5 runs]
CC(=O)Nc1cccc(-n2c(=O)n(C3CC3)c(=O)c3c(Nc4ccc(I)cc4F)n(C)c(=O)c(C)c32)c1	17.6% [middle of 5 runs]
CC(=O)OC12COC1CC(O)C1(C)C(=O)C(O)C3=C(C)C(OC(=O)C(O)C(NC(=O)OC(C)(C)C)c4ccccc4)CC(O)(C(OC(=O)c4ccccc4)C21)C3(C)C (centres undefined)	44.2% [middle of 5 runs]

Please examine the following record next.
Field request: viability, T/C | item: C=CC(=O)N1CCN(c2nc(OCC3CCCN3C)nc3c2CCN(c2cccc4cccc(C)c24)C3)CC1CC#N (centres undefined) 94.9% [middle of 9 runs]
